# Test system: epithelial carcinoma A431 cell line
# MEASUREMENT NOTES: MTT Cell Proliferation Assay, A431 cells
# Assay type: cell-based
# MEASUREMENT SETUP: Homo sapiens, A-431, A431 cells, first value of cell; read-out: MTT Assay IC50(A431/MDBK): A431
pIC50: −log10 of the molar value.
MEASURED METRIC: pIC50

INPUT: Fill in the blank: the reported pIC50 of CCCCc1c(C)nc(Nc2nc(C)c3cc(C)ccc3n2)[nH]c1=O is ____.
OUTPUT: 5.27

(a) CCc1ccc2nc(Nc3nc(-c4cccc(OC)c4)cc(=O)[nH]3)nc(C)c2c1
(b) Cc1nc(Nc2nc(=O)cc(-c3ccccc3)[nH]2)nc2c(C)cccc12
INPUT: # compare pIC50 for a vs b ; return the one with the smaller value Please reply using the label of the selected record.
OUTPUT: b
